Listed proteins paired with reported Enzyme Activity Endpoint Assay (purified): IgG
Target: pooled human IgG (human IgG1, 2, 3 and 4)
# unit: ng/µL | format: bare number

>>> recorded_result("PRT-440 (protein) MSQTEDSESLQRLRDIEDFQAEKKKQNVVYTKWLDGVDVKDHDFRKIVDGNIAYYATPLLNGRGFYDINKDFNRDSDKCAAAVAANMFHYWLDRNRDNVDRFLRQNPEKHGIIELPDGQLKLSDFLNTYESDDGYRDKSKLFDFISNNFNGPVWTDKLLDNYINGYAYNYKYGRTIEDPTKNTSKINFFKEVFNEKILTNNHSIRNQNELSVLLSEALYTGKAIGLSYGPAGLRHSLGHIISVWGADLDADGNVVAIYVTDSDDKKLTIGDERVGLKRYKISTDDEGRLRLTAYEETHNTGGQIRGLWTLDTGKQAWADYFDKTEQTGTDQAEQ")
0
>>> recorded_result("PRT-642 (protein) MQITSVWTKGVTPLTPEQFRYNNEDVIHAPYLAHQGWYDITKTFNRGDNLLCGAATAGNMLHWWFDQNKTEIEAYLSKHPEKQKIIFNNQELFDLKAAIDTKDSQTNSQLFNYFRDKAFPNLSARQGGVMPDLVLDMFINGYYLNVFKTQSTDVNRPYQDKDKRGGIFDAVFTRGDQTTLLTARHDLKNKGLNDISTIIKQELTEGRALALSHTYANVSISHVINLWGADFNAEGNLEAIYVTDSDADEKIGMKKYFVGINAHGHVAISAKKIEGENIGAQVLGLFTLSSGKDIWQKLSLEHHHHHH")
360
>>> recorded_result("PRT-382 (protein) MVTSVWTKGVTPPTNFTYGEDVLHAPYVANQGWYDITKTFNGKDDLLCGAATAGNMLHWWFDQNKEQIENYLKKHPEKQKINFNGEQMFDVKEAIDTKDSQLDSKLFEYFKEKAFPYLSTKHLGVFPDHVIDMFINGYRLSLTNHGPTPVKRGSKDPRGGIFDAVFTRGDQSKLLTNRHDFKEKTLKEISDLIKQELTEGKALGISHTYANVRINHVINLWGADFDAEGNLEAIYVTDSDSNASIGMKKYVVGVNSNGKVAISAKEIEEDNIGAQVLGLFTLSTGQDIWNQTN")
0

Next protein, please.
Name the reported Enzyme Activity Endpoint Assay (purified): IgG value associated with the protein PRT-413 (protein) MTITSVWTKGVTPPTPEDFRENNEDVLHAPYVANQGWYDITKTFDGKDNLLCGAATAGNMLHWWFDQNKEEIERYLKKHPEKQKIIFNNQELFDVKAAIDTKDSQTNSKLFNYFRDKAFPNLSARQLGVMPDLVLDMFINGYYLNLGKTQSTDVNRPYQDKDKRGGIFDAVFTRGDQTTLLTARHDLKNKGLNEISDLIKQELTEGKALALSHTYANVRINHVINLWGADFDAEGNLIAIYVTDSDANASIGMKKYFVGVNANGKVAISAKKIEGDNIGAQVLGLFTLSTGQDIWQKLS 14
